The reader will find IC50 measurements below, all made with PI3Kβ (Homo sapiens (Human)).
Sequence (P42338 whole entry): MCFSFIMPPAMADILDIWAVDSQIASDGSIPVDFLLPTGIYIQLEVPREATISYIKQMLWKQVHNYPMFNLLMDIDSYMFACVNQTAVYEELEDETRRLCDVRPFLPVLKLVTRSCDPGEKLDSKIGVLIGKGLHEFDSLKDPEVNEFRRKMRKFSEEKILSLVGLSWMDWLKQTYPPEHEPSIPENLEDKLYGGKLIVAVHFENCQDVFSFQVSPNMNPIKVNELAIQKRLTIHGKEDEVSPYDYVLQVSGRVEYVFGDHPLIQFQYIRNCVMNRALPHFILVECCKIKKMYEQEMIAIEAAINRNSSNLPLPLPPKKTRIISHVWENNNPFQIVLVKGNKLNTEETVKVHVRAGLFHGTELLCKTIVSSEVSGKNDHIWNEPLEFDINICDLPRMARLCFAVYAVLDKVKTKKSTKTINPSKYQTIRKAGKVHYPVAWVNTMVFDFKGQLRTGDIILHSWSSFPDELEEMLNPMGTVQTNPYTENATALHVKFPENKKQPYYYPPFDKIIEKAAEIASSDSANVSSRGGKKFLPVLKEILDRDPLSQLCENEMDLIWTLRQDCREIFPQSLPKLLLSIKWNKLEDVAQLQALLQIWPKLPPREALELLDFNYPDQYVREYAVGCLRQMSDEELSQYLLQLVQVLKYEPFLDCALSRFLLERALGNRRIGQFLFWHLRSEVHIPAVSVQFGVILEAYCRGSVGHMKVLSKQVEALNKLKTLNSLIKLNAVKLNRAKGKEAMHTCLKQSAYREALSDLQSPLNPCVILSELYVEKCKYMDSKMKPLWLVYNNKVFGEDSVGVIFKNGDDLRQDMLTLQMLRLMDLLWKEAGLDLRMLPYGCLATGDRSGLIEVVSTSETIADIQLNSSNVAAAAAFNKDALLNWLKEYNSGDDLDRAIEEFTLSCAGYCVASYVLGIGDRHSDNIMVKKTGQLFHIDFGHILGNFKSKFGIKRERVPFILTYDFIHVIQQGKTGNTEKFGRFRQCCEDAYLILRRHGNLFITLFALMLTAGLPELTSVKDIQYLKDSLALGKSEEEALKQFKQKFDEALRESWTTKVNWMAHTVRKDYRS
Sequence (P27986 whole entry partner): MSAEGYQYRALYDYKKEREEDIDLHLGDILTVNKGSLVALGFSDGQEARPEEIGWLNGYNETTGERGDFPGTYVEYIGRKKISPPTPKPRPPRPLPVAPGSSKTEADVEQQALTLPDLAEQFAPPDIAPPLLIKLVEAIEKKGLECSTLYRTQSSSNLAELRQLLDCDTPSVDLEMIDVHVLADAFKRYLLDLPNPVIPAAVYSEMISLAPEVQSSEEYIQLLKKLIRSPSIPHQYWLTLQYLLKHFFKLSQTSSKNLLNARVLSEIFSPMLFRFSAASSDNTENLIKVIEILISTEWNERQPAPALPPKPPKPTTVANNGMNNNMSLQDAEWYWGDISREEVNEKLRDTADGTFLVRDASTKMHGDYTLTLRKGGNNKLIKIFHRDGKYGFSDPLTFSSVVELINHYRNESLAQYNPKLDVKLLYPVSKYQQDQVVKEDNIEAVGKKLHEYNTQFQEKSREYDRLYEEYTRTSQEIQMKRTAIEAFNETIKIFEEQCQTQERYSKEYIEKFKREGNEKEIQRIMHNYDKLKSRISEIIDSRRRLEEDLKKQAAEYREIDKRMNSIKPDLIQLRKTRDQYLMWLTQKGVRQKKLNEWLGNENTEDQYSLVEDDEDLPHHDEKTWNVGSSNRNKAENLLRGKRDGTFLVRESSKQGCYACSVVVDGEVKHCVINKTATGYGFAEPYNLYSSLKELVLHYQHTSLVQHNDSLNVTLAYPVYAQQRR
Give the value, in units of µM, as a plain number.

Reference set (4 entries):
## Task Lookup: IC50 / PI3Kβ (Homo sapiens (Human)) / Cc1nc2c(-c3nnc[nH]3)cc(-c3ccnc(N)c3F)cc2n1-c1ccnc2cc(F)cc(F)c12 (single isomer, unassigned)
## Result 0.004

## Task Lookup: IC50 / PI3Kβ (Homo sapiens (Human)) / `Cc1nc2c(C(=O)O)cc(-c3ccnc(N)n3)cc2n1-c1ccnc2c(Cl)cccc12`
## Result 0.013

## Task Lookup: IC50 / PI3Kβ (Homo sapiens (Human)) / Cc1nnc(-c2cc(-c3ccnc(N)c3F)cc3c2nc(C)n3-c2ccnc3c(Cl)ccc(F)c23)[nH]1 [Example 98]
## Result 0.006

## Task Lookup: IC50 / PI3Kβ (Homo sapiens (Human)) / `Cc1nc2c(C(N)=O)cc(-c3ccncc3)cc2n1-c1ccnc2c(Cl)ccc(F)c12`
## Result 0.003

***
## Task Lookup: IC50 / PI3Kβ (Homo sapiens (Human)) / `Cc1nc2c(C(N)=O)cc(-c3ccnc(N)c3F)cc2n1-c1ccnc2c(F)ccc(F)c12`
## Result 0.013

## Task Lookup: IC50 / PI3Kβ (Homo sapiens (Human)) / Cc1cc(-c2cc(-c3nnc[nH]3)c3nc(C)n(-c4ccnc5c(F)ccc(F)c45)c3c2)ccn1 (single isomer, unassigned)
## Result 0.011

## Task Lookup: IC50 / PI3Kβ (Homo sapiens (Human)) / Cc1nc2c(-c3nnc[nH]3)cc(-c3ccnc(N)c3F)cc2n1-c1c(Cl)cnc2c(F)cccc12 (single isomer, unassigned) [Example 108]
## Result 0.81

Source of measurements: patent US10227350B2
